# Test system: bovine tubulin
# Test Protocol: In vitro tubulin polymerization assay (turbidity at 340 nm)
# Format: biochemical
# Cond: 10 μM compound, 30 minute data point, vs 1% DMSO control
The molecules listed here are annotated with their Tubulin Assay: percent inhibition at 10 μM based on 30 minute data.
Response body: numeric value in %, unit text excluded.

Example cases with answers are listed next.
1) Cn1nc(-c2cccnc2NCc2ccncc2)nc1Nc1ccc2c(c1)OCCO2 [Compound 68]
58
2) COc1cc(Nc2nnc(-c3cccnc3NCCc3cccnc3)o2)cc(OC)c1OC [Compound 204]
28
3) COc1cc(CNc2ccccc2-c2nnc(-c3cccc(OC)c3)[nH]2)cc(OC)c1 [Compound 135]
23

Determine its reported Tubulin Assay: percent inhibition at 10 μM based on 30 minute data: c1cnc(NCc2ccc3c(c2)OCCO3)c(-c2nnc(Nc3ccc4c(c3)OCO4)o2)c1 [Compound 196]
93

Return value of Tubulin Assay: percent inhibition at 10 μM based on 30 minute data for input Nc1cc(C(F)(F)F)ccc1-c1nnc(Nc2ccc3c(c2)OCO3)[nH]1 [Compound 124c] , no commentary.
61

Answer with the recorded Tubulin Assay: percent inhibition at 10 μM based on 30 minute data of c1ccc(-c2cnc(Nc3ccc4c(c3)OCCO4)o2)c(NCc2ccc3c(c2)OCCO3)c1 [Compound 245] only.
93

Quote Tubulin Assay: percent inhibition at 10 μM based on 30 minute data reported for COc1cccc(Nc2ncc(-c3ccccc3NCc3cc(OC)cc(OC)c3)o2)c1 [Compound 251] please.
30

Given COc1cc(Nc2ncccc2-c2nnc(Nc3ccc(OC)cc3OC)[nH]2)cc(OC)c1 [Compound 12] , respond with its Tubulin Assay: percent inhibition at 10 μM based on 30 minute data.
46

Kindly indicate its recorded Tubulin Assay: percent inhibition at 10 μM based on 30 minute data. Item: COc1ccc(CNc2nnc(-c3cccnc3NCCCN3CCCC3=O)[nH]2)cc1 [Compound 57]
22

For the molecule FC(F)(F)c1cccc(-c2nnc(-c3ccccc3NCc3ccc4c(c3)OCCO4)[nH]2)c1 [Compound 150] , give its reported Tubulin Assay: percent inhibition at 10 μM based on 30 minute data.
24

Write down Tubulin Assay: percent inhibition at 10 μM based on 30 minute data measured for item c1ccc(CNc2ccccc2-c2nnc(Nc3ccc4c(c3)OCCO4)o2)nc1 [Compound 217]
100

Determine its reported Tubulin Assay: percent inhibition at 10 μM based on 30 minute data: COc1cc(Nc2ncccc2-c2nnc(N)o2)cc(OC)c1 [Compound 243a]
46

Indicate the recorded Tubulin Assay: percent inhibition at 10 μM based on 30 minute data value for this molecule: c1ccc(-c2nnc(Nc3ccc4c(c3)OCO4)o2)c(NCc2ccncc2)c1 [Compound 225]
91

Please report the measured Tubulin Assay: percent inhibition at 10 μM based on 30 minute data for COc1ccc(Nc2nnc(-c3cccnc3Nc3ccc4c(c3)OCO4)[nH]2)c(OC)c1 [Compound 10]
73

Provide only the value of recorded Tubulin Assay: percent inhibition at 10 μM based on 30 minute data for c1cnc(NCc2ccc3c(c2)OCO3)c(-c2nnc(Nc3ccc4c(c3)OCO4)[nH]2)c1 [Compound 33]
60

Tell me Tubulin Assay: percent inhibition at 10 μM based on 30 minute data reported for FC(F)(F)c1cccc(-c2nnc(-c3ccccc3NCc3cccnc3)[nH]2)c1 [Compound 130]
47

Report Tubulin Assay: percent inhibition at 10 μM based on 30 minute data for COc1cc(CNc2ncccc2-c2nnc(Nc3ccc(OC)c(OC)c3)o2)cc(OC)c1 [Compound 183]
50

Answer with the recorded Tubulin Assay: percent inhibition at 10 μM based on 30 minute data of CN(C)c1ccc(-c2nnc(Nc3ccc4c(c3)OCCO4)o2)c(NCc2ccccn2)c1 [Compound 230] only.
45

Identify measured Tubulin Assay: percent inhibition at 10 μM based on 30 minute data corresponding to FC(F)(F)c1ccc(-c2nnc(-c3cccnc3NCc3cccnc3)[nH]2)cc1 [Compound 86]
31

Assign Tubulin Assay: percent inhibition at 10 μM based on 30 minute data to the following record: FC(F)(F)c1cccc(-c2nnc(-c3ccccc3NCc3ccc4c(c3)OCO4)[nH]2)c1 [Compound 152]
73

Output measured Tubulin Assay: percent inhibition at 10 μM based on 30 minute data for this item: c1ccc(-c2cnc(Nc3ccc4c(c3)OCCO4)o2)c(NCc2ccc3c(c2)OCO3)c1 [Compound 244]
96

Identify measured Tubulin Assay: percent inhibition at 10 μM based on 30 minute data corresponding to COc1cc(CNc2ncccc2-c2nnc(-c3cccc(OC)c3)[nH]2)cc(OC)c1 [Compound 79]
32

Entry COc1ccc(CNc2ncccc2-c2nnc(Nc3ccc4c(c3)OCCO4)[nH]2)cc1 [Compound 51] needs its Tubulin Assay: percent inhibition at 10 μM based on 30 minute data filled in; supply it.
68

Answer with the recorded Tubulin Assay: percent inhibition at 10 μM based on 30 minute data for the molecule listed here: CS(=O)(=O)c1ccc(-c2nnc(-c3ccccc3NCC3CCOC3)[nH]2)cc1 (stereo not drawn) [Compound 134]
34

* * *

# Test system: A431, human epidermoid carcinoma cells
# Test Protocol: Cell cycle analysis (FACS), mitotic arrest in G2/M
# Assay type: cell-based
# Cond: Homo sapiens, A-431, 24 h, read-out: FACS Assay: concentration required to achieve inhibition in FACS assay
Measurement Kind: minimal effective concentration (µM)
The answer is to be given in µM; state only the numeric part.

1) COc1cc(Nc2ncccc2-c2nnc(Nc3ccc4c(c3)OCCO4)o2)cc(OC)c1
0.01
2) O=S(=O)(Nc1ccccc1-c1nnc(Nc2ccc3c(c2)OCCO3)[nH]1)c1cccc(OC(F)(F)F)c1
10
3) COc1cc(Nc2ncccc2-c2nnc(Nc3ccc(N(C)C)cc3)[nH]2)cc(OC)c1
10

Answer with reported minimal effective concentration of `Fc1ccc(CNc2ncccc2-c2nnc(Nc3ccc4c(c3)OCO4)o2)cc1F`
1

* * *

Tubulin Assay: percent inhibition at 10 μM based on 30 minute data overview
# System: bovine tubulin
# Test Protocol: In vitro tubulin polymerization assay (turbidity at 340 nm)
# Type: biochemical
# Cond: 10 μM compound, 30 minute data point, vs 1% DMSO control
Dear colleague, please return just the value in %, with no unit written.

1) COc1cc(Nc2ncccc2-c2nnc(Nc3cccc(NS(=O)(=O)c4ccc5c(c4)CCO5)c3)[nH]2)cc(OC)c1
24
2) O=C1CCCN1CCCNc1ncccc1-c1nnc(Nc2ccc3c(c2)OCCO3)o1
85

Please report the measured Tubulin Assay: percent inhibition at 10 μM based on 30 minute data for `CS(=O)(=O)c1ccc(-c2nnc(-c3cccnc3NCc3ccco3)[nH]2)cc1`
83
